# Tested on: MDCK
# ASSAY_OVERVIEW: Cytotoxicity against dog MDCK cells assessed as reduction in cell viability at 100 uM measured after 40 hrs by Celltiter-Glo assay
# Format: cell-based, Canis lupus familiaris
OBSERVABLE: Activity

1) CC(=O)OC[C@H]1O[C@@H](n2cc(CNC(=O)[C@]34CCC(C)(C)C[C@H]3C3=CC[C@@H]5[C@@]6(C)CC[C@H](O)C(C)(C)[C@@H]6CC[C@@]5(C)[C@]3(C)CC4)nn2)[C@H](OC(C)=O)[C@@H](OC(C)=O)[C@H]1OC(C)=O : Toxic

----------
# Test system: MDCK
# ASSAY_OVERVIEW: Cytotoxicity against dog MDCK cells assessed as reduction in cell viability at 100 uM measured after 40 hrs by Celltiter-Glo assay
# Format: cell-based, Canis lupus familiaris
OBSERVABLE: Activity

1) CC(=O)OC[C@H]1O[C@@H](n2cc(CNC(=O)[C@]34CCC(C)(C)C[C@H]3C3=CC[C@@H]5[C@@]6(C)CC[C@H](O)C(C)(C)[C@@H]6CC[C@@]5(C)[C@]3(C)CC4)nn2)[C@H](OC(C)=O)[C@@H](OC(C)=O)[C@@H]1O[C@@H]1O[C@H](COC(C)=O)[C@@H](OC(C)=O)[C@H](OC(C)=O)[C@H]1OC(C)=O : Non-Toxic
2) CC(=O)OC[C@H]1O[C@@H](O[C@H]2[C@H](OC(C)=O)[C@@H](OC(C)=O)[C@H](n3cc(CNC(=O)[C@]45CCC(C)(C)C[C@H]4C4=CC[C@@H]6[C@@]7(C)CC[C@H](O)C(C)(C)[C@@H]7CC[C@@]6(C)[C@]4(C)CC5)nn3)O[C@@H]2COC(C)=O)[C@H](OC(C)=O)[C@@H](OC(C)=O)[C@H]1OC(C)=O : Non-Toxic
3) CC1(C)CC[C@]2(C(=O)NCc3cn([C@@H]4O[C@H](CO)[C@@H](O[C@@H]5O[C@H](CO)[C@@H](O)[C@H](O)[C@H]5O)[C@H](O)[C@H]4O)nn3)CC[C@]3(C)C(=CC[C@@H]4[C@@]5(C)CC[C@H](O)C(C)(C)[C@@H]5CC[C@]43C)[C@@H]2C1 : Non-Toxic

----------
# Tested on: MDCK
# ASSAY_OVERVIEW: Cytotoxicity against dog MDCK cells assessed as reduction in cell viability at 100 uM measured after 40 hrs by Celltiter-Glo assay
# Type: cell-based, Canis lupus familiaris
OBSERVABLE: Activity

1) CC1(C)CC[C@]2(C(=O)NCc3cn([C@@H]4OC[C@@H](O)[C@H](O)[C@H]4O)nn3)CC[C@]3(C)C(=CC[C@@H]4[C@@]5(C)CC[C@H](O)C(C)(C)[C@@H]5CC[C@]43C)[C@@H]2C1 : Toxic

----------
# ASSAY_OVERVIEW: Selectivity index, ratio of CC50 for MDCK cells to IC50 for influenza A virus A/WSN/33
# Format: toxicity
# REPORTED_CONDITIONS: dog, read-out: Ratio CC50/IC50
OBSERVABLE: selectivity ratio

1) CCOC(=O)C1=C[C@@H](OC(CC)CC)[C@H](NC(C)=O)[C@@H](N)C1 [OSELTAMIVIR PHOSPHATE] : > 54.9
2) CC1(C)CC[C@]2(C(=O)NCc3cn([C@@H]4OC[C@H](O)[C@H](O)[C@H]4O)nn3)CC[C@]3(C)C(=CC[C@@H]4[C@@]5(C)CC[C@H](O)C(C)(C)[C@@H]5CC[C@]43C)[C@@H]2C1 : > 7.73
3) CC1(C)CC[C@]2(C(=O)O)CC[C@]3(C)C(=CC[C@@H]4[C@@]5(C)CC[C@H](O)C(C)(C)[C@@H]5CC[C@]43C)[C@@H]2C1 : > 1.38
4) CC(=O)OC[C@H]1O[C@H](n2cc(CNC(=O)[C@]34CCC(C)(C)C[C@H]3C3=CC[C@@H]5[C@@]6(C)CC[C@H](O)C(C)(C)[C@@H]6CC[C@@]5(C)[C@]3(C)CC4)nn2)[C@@H](OC(C)=O)[C@@H](OC(C)=O)[C@@H]1OC(C)=O : > 13.8
5) CC1(C)CC[C@]2(C(=O)NCc3cn([C@@H]4O[C@H](CO)[C@@H](O)[C@H](O)[C@H]4O)nn3)CC[C@]3(C)C(=CC[C@@H]4[C@@]5(C)CC[C@H](O)C(C)(C)[C@@H]5CC[C@]43C)[C@@H]2C1 : > 18.3
